- experiment: Inhibition of Streptococcus pneumoniae ASADH using aspartate semialdehyde and NADP+
pKi: −log10 of the molar value.
I would appreciate it if you labelled entries true (1) when pKi is 4 or higher, otherwise false (0).

{"record-smiles": "Cc1ccc(CN(CC(=O)O)Cc2ccc(C(=O)O)c(C(=O)O)c2)cc1", "category-label": "true (1)"}
{"record-smiles": "O=C(O)CN(Cc1ccc(C(=O)O)cc1)Cc1ccc(C(=O)O)c(C(=O)O)c1", "category-label": "true (1)"}
{"record-smiles": "O=C([O-])CCN(Cc1ccc(C(F)(F)F)cc1)Cc1ccc(C(=O)[O-])c(C(=O)[O-])c1.[Na+].[Na+].[Na+]", "category-label": "false (0)"}
{"record-smiles": "O=C(O)CN(Cc1ccccc1)Cc1ccc(C(=O)O)c(C(=O)O)c1", "category-label": "false (0)"}
{"record-smiles": "O=C(O)CN(Cc1ccc(Br)cc1)Cc1ccc(C(=O)O)c(C(=O)O)c1", "category-label": "true (1)"}
{"record-smiles": "CN(CC(=O)O)Cc1ccc(C(=O)O)c(C(=O)O)c1", "category-label": "false (0)"}
{"record-smiles": "O=C(O)CN(Cc1ccc(OC(F)(F)F)cc1)Cc1ccc(C(=O)O)c(C(=O)O)c1", "category-label": "true (1)"}
{"record-smiles": "O=C(O)CN(Cc1ccc(C(=O)O)c(C(=O)O)c1)Cc1ccccc1Br", "category-label": "false (0)"}
{"record-smiles": "NC(=O)c1ccc(CN(CC(=O)O)Cc2ccc(C(=O)O)c(C(=O)O)c2)cc1", "category-label": "false (0)"}
{"record-smiles": "O=C([O-])CCN(Cc1ccc(Br)cc1)Cc1ccc(C(=O)[O-])c(C(=O)[O-])c1.[Na+].[Na+].[Na+]", "category-label": "false (0)"}

* * *

- experiment: Inhibition of Streptococcus pneumoniae ASADH using aspartate semialdehyde and NADP+
Mark rule met only when Ki stays strictly below 400 µM. Values equal to the cut-off are rule not met.

{"record-smiles": "Cc1cccc(CN(CC(=O)O)Cc2ccc(C(=O)O)c(C(=O)O)c2)c1", "category-label": "rule not met"}
{"record-smiles": "O=C(O)c1ccc(CN[C@@H](CO)C(=O)O)cc1C(=O)O", "category-label": "rule met"}
{"record-smiles": "O=C(O)CN(Cc1ccc(C(F)(F)F)cc1)Cc1ccc(C(=O)O)c(C(=O)O)c1", "category-label": "rule met"}
{"record-smiles": "O=C(O)CN(Cc1ccc(C(=O)O)c(C(=O)O)c1)Cc1ccccc1OC(F)(F)F", "category-label": "rule not met"}
{"record-smiles": "O=C(O)CN(Cc1ccc(C(=O)O)c(C(=O)O)c1)Cc1ccccc1C(F)(F)F", "category-label": "rule not met"}
{"record-smiles": "O=C(O)CN(Cc1ccc(/C=C/Cc2ccccc2)cc1)Cc1ccc(C(=O)O)c(C(=O)O)c1", "category-label": "rule not met"}
{"record-smiles": "O=C(O)CN(Cc1cccc(Br)c1)Cc1ccc(C(=O)O)c(C(=O)O)c1", "category-label": "rule not met"}
{"record-smiles": "O=C(O)CNCc1ccc(C(=O)O)c(C(=O)O)c1", "category-label": "rule met"}
{"record-smiles": "O=C(O)CN(Cc1cccc(C(F)(F)F)c1)Cc1ccc(C(=O)O)c(C(=O)O)c1", "category-label": "rule not met"}
{"record-smiles": "C=CCN(CC(=O)O)Cc1ccc(C(=O)O)c(C(=O)O)c1", "category-label": "rule met"}
